Values compiled from PubChem BioAssay (NCI).

System: HCT-15 colon
assay.explanation: NCI tumour cell line growth inhibition, 48 h
Below, each of the compounds is paired with its reported TGI value.
test.readout: TGI

CCN(CC)CCn1c(=O)c2ccccc2n2c3c(=O)n(C)c(=O)n(C)c3nc12
66.2 µM
CCN(CC)c1ccc2cc(C(=O)Nc3ccccc3OC)c(=N)oc2c1
88.3 µM
CC1OC(=O)C2CC3CCCCC3C(/C=C/C3CCCC(C)N3C)C12 (stereo not given)
> 100 µM
CC(=O)OCC1OC(OC2CCCC[Si](c3ccccc3)(c3ccccc3)O2)C(OC(C)=O)C(OC(C)=O)C1OC(C)=O (stereo not given)
> 100 µM
O=C(O)CCC(=O)C(=O)O
> 100 µM

###

Test system: A498 renal
assay.explanation: NCI tumour cell line growth inhibition, 48 h
Label yes when TGI is at or above 60 µM; otherwise label no.

Cc1nn(C(=O)Cc2ccccc2)c2c1C(c1ccc3ccccc3c1O)SC(N)=N2 (centres undefined)
yes
COC(=O)c1nc(-c2ccc(Cl)c(Cl)c2)nc2ccc(Cl)cc12
yes
CCOC(=O)c1ccc(NC(=O)Nc2nccs2)cc1
no
CN1C(c2ccccc2)CC(=NOCc2ccccc2)CC1c1ccccc1 (centres undefined)
yes
CC(C)(C)CC(C)(C)c1ccc(OCCSC(=N)N)cc1
no
Cc1ccc(N=NC(=O)NNc2ccc(C)c([N+](=O)[O-])c2)cc1[N+](=O)[O-]
yes
CN(CCO)C1CCN(c2ccc(Nc3ncc4c5ccnc(F)c5n(C5CCCC5)c4n3)nc2)CC1
no
COC(=O)CCC(C)[C@H]1CCC2C3C(C[C@H](OC(C)=O)[C@@]21C)[C@@]1(C)CCC2(C[C@H]1C[C@H]3OC(C)=O)OOC1(CCCCCCC1)OO2 (some centres undefined)
yes

###

System: NCI-H460 lung
assay.explanation: NCI tumour cell line growth inhibition, 48 h
test.readout: log10 of TGI (log10 of the value in µM)

C=C(C)[C@@H]1CC[C@]2(COC(C)=O)CC[C@]3(C)[C@H](CC[C@@H]4[C@@]5(C)CCCN(C(C)=O)C(C)(C)[C@@H]5CC[C@]43C)[C@@H]12
0.57
C=C1C(=O)O[C@H]2[C@H]1CC/C(COC(=O)NCc1ccc(Cn3c(=O)sn(CCI)c3=O)cc1)=C\CC[C@@]1(C)O[C@@H]21
1.36
NS(=O)(=O)N(c1cc(C(F)(F)F)cc(C(F)(F)F)c1)C1CCN(Cc2ccc(C(F)(F)F)cc2)CC1
1.21
CC(=O)O[C@H]1CC2C(C3CC[C@H](C(C)CCC(N)=O)[C@]31C)[C@H](OC(C)=O)C[C@@H]1CC3(CC[C@]21C)OOC1(CCC(C)CC1)OO3 (stereo partly drawn)
0.94
COc1ccc(/C=N/Nc2nc(N)nc(N3CCCC3)c2C#N)cc1
1.67
CCN(CCCNC(=O)Cc1cc(=O)oc2cc(N(C)C)ccc12)CCNc1ccnc2cc(Cl)ccc12
1.35

###

System: CCRF-CEM leukemia
assay.explanation: NCI tumour cell line growth inhibition, 48 h; in the data active = GI50 below about 0.43 µM; inactive = the rest
Possible outcomes: true (1) (active), false (0) (inactive)

Nc1nc2cc(-c3ccc4ncc(C(=O)N5CCOCC5)n4c3)ccc2o1
false (0)
COc1ccc(CN2CCc3c(Sc4ccccc4)nc(N)nc3C2=O)c(OC)c1
false (0)
O=C1c2ccc3c4c(ccc(c24)C(=O)N1CCCNCc1ccccc1F)C(=O)N(CCCNCc1ccccc1F)C3=O
true (1)
COC(=O)[C@@H]1CCCN1C(=O)[C@@H]1CCCN1C(=O)[C@H](Cc1ccccc1)NC(=S)Nc1cc(C(F)(F)F)cc(C(F)(F)F)c1
false (0)
Cc1nn(-c2ccccc2)c(-n2ccnc2)c1/C=N/Nc1nc(-c2ccc(Cl)c(Cl)c2)cs1
false (0)
c1cc(N2CCN(c3ccc(C4=NCCN4)cc3)CC2)ccc1C1=NCCN1
false (0)
COC(=O)c1c2c(c(C)[n+]([O-])c1C)C(=O)C(NCc1cccc(Cl)c1)=CC2=O
false (0)
CC(C)(Oc1ccc(Cl)cc1)C(=O)NC1C2CC3CC1CC(NS(C)(=O)=O)(C3)C2 (configuration not stated)
false (0)
O=C1c2[nH]cc(CN3CCN(CCO)CC3)c2C(=O)c2c1c(O)c1ccccc1c2O
false (0)
CN(CCO)C1CCN(c2ccc(Nc3ncc4c5ccnc(F)c5n(C5CCCC5)c4n3)nc2)CC1
true (1)
Cc1ccc2c(NCCCN(C)C)c3c(C)nn(C)c3nc2c1
false (0)
C=CCOC1=CC(=O)c2ccccc2C1=O
false (0)
